These entries and their values trace back to PubChem BioAssay AID179.

# Test system: CEM cells HIV-1 protection, formazan growth assay
# ASSAY DETAILS: NCI AIDS Antiviral Assay;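 active = compounds giving half or more protection of infected cells from virus-caused growth loss, again on retest; inactive = the rest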
// one of 1 (yes) = active, 0 (no) = inactive, no free text

// known answers, use as guide
compound="COC(=O)CC(C(C(=O)OC)C(=O)OC)N1C(=O)OC(c2ccccc2)C1c1ccccc1 (configuration not stated)" assigned_class="0 (no)"
compound="COc1cccc2c1C(=O)c1c(O)c3c(c(O)c1C2=O)C[C@@](O)(C(C)=O)C[C@@H]3OC1CC(N)C(O)C(C)O1 (some centres not stated)" assigned_class="0 (no)"
compound=COc1ccc(NC(=O)/C(=C/N2C(=O)/C(=C\C(C)=C\c3ccccc3)SC2=S)C(C)=O)cc1 assigned_class="0 (no)"
compound=Nc1nn2cc3c(nc2c1N=Nc1ccccc1)-c1ccccc1CC3 assigned_class="0 (no)"
compound=CC(C)(C)c1cc(/C=C\C(=O)c2ccc([N+](=O)[O-])cc2)cc(C(C)(C)C)c1O assigned_class="0 (no)"
compound=O=c1[nH]nc(-c2ccccc2)n1/N=C/c1cccnc1 assigned_class="0 (no)"

INPUT: # lookup: test call for CC(=O)N/N=C(/C)c1cccs1
OUTPUT: 0 (no)

INPUT: So what was the verdict on CCOC(=O)C1CCC2c3[nH]c4ccccc4c3CCN2C1=O (configuration not stated) in this test?
OUTPUT: 0 (no)

INPUT: Please share the test call associated with CC(=O)OC1C[C@H]2C(OC(=O)c3ccccc3)C3C4(OC(C)=O)COC4C[C@H](OC(C)=O)[C@@]3(C)C(OC(C)=O)[C@H](OC(C)=O)C(=C1C)C2(C)C (some centres not stated) .
OUTPUT: 0 (no)

INPUT: // param item: O=S(c1ccccc1)C1CC2CC3(CCC21O)OCCO3 (configuration not stated) ; yields the recorded call
OUTPUT: 0 (no)

INPUT: Fill in: this test's call for O/N=C/c1ccc(O)c(O)c1 is ___
OUTPUT: 0 (no)

INPUT: Record request — test call for N#CCC(=O)N1CCCOCCC1
OUTPUT: 0 (no)

INPUT: Name the outcome recorded for CCOC(=O)C1=C(c2ccccc2)NC(c2ccccc2)=C(C(=O)OCC)c2c1c(=O)cc[nH]c2=O in the assay.
OUTPUT: 0 (no)
